The measured values listed here are drawn from PubChem BioAssay AID1626.

- Assay Text: M. tuberculosis H37Rv growth inhibitors, H37Rv strain (AID 1626);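 also: bacteria incubated seven days before Alamar blue readout; 0% = bacteria only wells and 100% = bacteria with antibiotic wells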
- Experimental Context: active compounds read high, concentration not given here
Screen size: about 220,000 compounds; about 2,000 (0.91%) were called active. Another 2% or so got no clear call; they are omitted. The list is a sample of the results. Measured potencies and affinities stand elsewhere.
# key: entry, value: inhibition

Req: Look up and state reported inhibition for CCNCc1ccc(OCc2ccccc2F)c(OC)c1
Resp: 6.78% (inactive)

Req: Look up and state reported inhibition for Cc1ccc(NC(=S)NNC(=O)c2ccco2)cc1
Resp: 7.01% (inactive)

Req: Look up and state reported inhibition for COc1cccc(CNCCc2c[nH]c3ccccc23)c1OCc1ccc(F)cc1
Resp: 28.9% (inactive)
